Assay: chemical genetic growth profiling, strain panel (AID 1159580);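 note: tested at 20 µM; growth read once vehicle control cultures reached saturation at 30 °C; 1 = growth at the plate median or of vehicle wells; lower values mean less growth of the strain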
Conditions: S. cerevisiae deletion strains, growth OD, locus YNR052C, strain pop2, active compounds read low
The campaign covered roughly 5,500 compounds. About 2,000 (36%) were called active. Another 18% or so got no clear call; they are omitted. This is one part of the list.
So I've got a bunch of compounds here, and I need their normalized growth values.
Answers are plain numbers.

The following compounds have reported results that may help.
1. O=C(O)C(O)C(O)C(=O)O (centres undefined)    0.991
2. COc1cc(OC)c2c(=O)cc(-c3ccccc3)oc2c1    0.902
3. O=C(O)C(O)C(O)C(O)C(O)C(=O)O (centres undefined)    1
4. O=C(O)CCCCCCCC(=O)O    0.974
5. Cc1cc(CC(=O)O)n(C)c1C(=O)c1ccc(Cl)cc1    1.01

Provide reported normalized growth for each item, in the same order as listed.
1. CC(C)(S)[C@@H](N)C(=O)O
2. CC(=O)Oc1ccc2c(c1)CCC1C2CC[C@]2(C)C(=O)CCC12 (some centres undefined)
3. COC[C@]12CN(C=O)C3[C@@H]4[C@H](OC)C1[C@]3(C1CC3(O)C(OC)C(O)C4(OC(C)=O)C1C3OC(=O)c1ccccc1)[C@@H](OC)C[C@H]2O (some centres undefined)
4. CN(C)CCC(c1ccccc1)c1ccccn1 (centres undefined)

[0.988, 0.996, 1.01, 1.01]
